# target: Torpedo AChR ion channel ([3H]TCP site) (Tetronarce californica, UniProt P02710+P02712+P02714+P02718)
# method-description: [3H]TCP competition binding to Torpedo AChRs in different conformational states
# conditions: Ki, [3H]TCP; resting/α-BTx-bound state
pKi: −log10 of the molar value.
measured-property: pKi

> print(dat)
                            compound.string  measured.property  number
1  COCC[C@H]1CC2CN3CCc4c([nH]c5ccccc45)[C@](C(=O)OC)(C2)[C@H]13                pKi    5.85

----------
# target: Torpedo AChR ion channel ([3H]18-MC site) (Tetronarce californica, UniProt P02710+P02712+P02714+P02718)
# Type: binding
# conditions: Ki, [3H]18-MC; desensitized/CCh-bound state
measured-property: Ki (nM)

> print(dat)
                            compound.string  measured.property  number
1              c1ccc(C2(N3CCCCC3)CCCCC2)cc1                 Ki     410
2  COCC[C@H]1CC2CN3CCc4c([nH]c5ccccc45)[C@](C(=O)OC)(C2)[C@H]13                 Ki     470

----------
# target: Torpedo AChR ion channel ([3H]ibogaine site) (Tetronarce californica, UniProt P02710+P02712+P02714+P02718)
# Sequence (P02710 25-461): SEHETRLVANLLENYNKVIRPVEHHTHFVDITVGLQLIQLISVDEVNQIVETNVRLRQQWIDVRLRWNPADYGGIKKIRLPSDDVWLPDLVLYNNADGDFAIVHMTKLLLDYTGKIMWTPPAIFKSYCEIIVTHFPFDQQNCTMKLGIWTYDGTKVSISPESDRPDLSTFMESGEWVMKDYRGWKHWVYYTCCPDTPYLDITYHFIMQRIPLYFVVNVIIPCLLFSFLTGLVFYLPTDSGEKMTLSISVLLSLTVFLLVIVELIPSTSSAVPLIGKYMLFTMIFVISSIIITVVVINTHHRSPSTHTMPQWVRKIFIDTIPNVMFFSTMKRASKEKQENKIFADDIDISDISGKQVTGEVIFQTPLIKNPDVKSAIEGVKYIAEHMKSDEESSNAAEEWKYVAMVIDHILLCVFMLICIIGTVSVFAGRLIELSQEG
# Sequence (P02712 25-493): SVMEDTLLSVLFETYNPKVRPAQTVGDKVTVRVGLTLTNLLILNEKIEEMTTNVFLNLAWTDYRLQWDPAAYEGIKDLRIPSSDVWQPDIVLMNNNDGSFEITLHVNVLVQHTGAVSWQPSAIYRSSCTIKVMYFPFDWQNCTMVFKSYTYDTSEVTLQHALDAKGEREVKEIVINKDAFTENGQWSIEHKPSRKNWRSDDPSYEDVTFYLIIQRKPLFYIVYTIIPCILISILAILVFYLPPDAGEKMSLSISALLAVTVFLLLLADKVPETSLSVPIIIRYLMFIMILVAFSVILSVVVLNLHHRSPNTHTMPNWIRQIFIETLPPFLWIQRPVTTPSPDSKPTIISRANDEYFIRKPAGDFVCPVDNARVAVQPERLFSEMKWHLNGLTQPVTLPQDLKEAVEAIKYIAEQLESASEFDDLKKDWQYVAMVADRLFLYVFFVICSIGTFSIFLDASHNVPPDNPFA
# Sequence (P02714 18-506): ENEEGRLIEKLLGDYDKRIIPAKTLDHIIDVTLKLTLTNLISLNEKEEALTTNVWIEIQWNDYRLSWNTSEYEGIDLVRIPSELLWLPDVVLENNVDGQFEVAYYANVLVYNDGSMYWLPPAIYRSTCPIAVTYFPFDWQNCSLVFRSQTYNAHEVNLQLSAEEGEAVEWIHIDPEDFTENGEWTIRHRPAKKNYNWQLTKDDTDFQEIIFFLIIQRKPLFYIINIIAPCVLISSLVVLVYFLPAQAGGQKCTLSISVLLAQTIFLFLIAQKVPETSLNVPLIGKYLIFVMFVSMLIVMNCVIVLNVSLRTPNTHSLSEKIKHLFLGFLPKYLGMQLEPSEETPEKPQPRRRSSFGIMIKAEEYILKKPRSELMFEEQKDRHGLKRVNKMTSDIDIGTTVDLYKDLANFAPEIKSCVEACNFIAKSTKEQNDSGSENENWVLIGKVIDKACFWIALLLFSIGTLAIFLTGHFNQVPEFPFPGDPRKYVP
# Sequence (P02718 22-522): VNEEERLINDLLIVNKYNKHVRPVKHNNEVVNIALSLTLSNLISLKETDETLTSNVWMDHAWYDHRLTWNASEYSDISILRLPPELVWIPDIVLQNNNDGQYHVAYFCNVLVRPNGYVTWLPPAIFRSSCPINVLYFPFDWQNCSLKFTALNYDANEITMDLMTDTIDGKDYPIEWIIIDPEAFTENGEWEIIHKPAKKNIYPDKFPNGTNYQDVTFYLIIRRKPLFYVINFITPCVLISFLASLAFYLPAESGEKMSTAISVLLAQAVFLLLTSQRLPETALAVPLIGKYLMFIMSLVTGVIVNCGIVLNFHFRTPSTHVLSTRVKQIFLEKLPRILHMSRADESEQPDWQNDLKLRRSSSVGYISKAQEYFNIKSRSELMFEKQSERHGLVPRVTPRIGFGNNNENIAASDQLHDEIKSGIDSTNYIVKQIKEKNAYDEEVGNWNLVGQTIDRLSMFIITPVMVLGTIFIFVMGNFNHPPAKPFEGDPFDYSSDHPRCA
# method-description: [3H]ibogaine competition binding to Torpedo AChRs
pKi: −log10 of the molar value.
measured-property: pKi

> print(dat)
                            compound.string  measured.property  number
1  COCC[C@H]1CC2CN3CCc4c([nH]c5ccccc45)[C@](C(=O)OC)(C2)[C@H]13                pKi    6.21
